These data points were gathered from ChEMBL document CHEMBL5108044.

Biological target: Signal transducer and activator of transcription 3 (Homo sapiens)
Sequence (P40763 whole entry, the tested form may be a part): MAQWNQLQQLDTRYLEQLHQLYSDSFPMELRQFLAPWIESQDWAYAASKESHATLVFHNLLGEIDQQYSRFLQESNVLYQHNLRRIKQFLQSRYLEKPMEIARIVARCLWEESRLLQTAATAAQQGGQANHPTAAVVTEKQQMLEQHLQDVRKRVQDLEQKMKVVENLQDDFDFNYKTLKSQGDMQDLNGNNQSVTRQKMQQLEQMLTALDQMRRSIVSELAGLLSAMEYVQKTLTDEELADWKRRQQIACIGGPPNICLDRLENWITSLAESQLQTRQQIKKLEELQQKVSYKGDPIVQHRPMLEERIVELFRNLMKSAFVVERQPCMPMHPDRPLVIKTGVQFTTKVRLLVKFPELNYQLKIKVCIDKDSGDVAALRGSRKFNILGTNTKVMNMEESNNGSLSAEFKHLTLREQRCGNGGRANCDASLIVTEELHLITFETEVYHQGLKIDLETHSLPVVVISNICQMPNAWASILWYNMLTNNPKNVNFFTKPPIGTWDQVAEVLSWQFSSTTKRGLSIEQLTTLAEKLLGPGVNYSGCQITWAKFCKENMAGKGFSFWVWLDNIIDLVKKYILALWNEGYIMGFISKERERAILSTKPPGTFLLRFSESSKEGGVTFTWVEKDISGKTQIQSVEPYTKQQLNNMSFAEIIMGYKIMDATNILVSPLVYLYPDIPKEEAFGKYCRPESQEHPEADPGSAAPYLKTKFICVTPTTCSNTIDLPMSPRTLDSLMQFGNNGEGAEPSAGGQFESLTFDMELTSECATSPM
Experiment: Inhibition of human recombinant STAT3 (127 to 722 residues) transcriptional activity expressed in HEK293T cells in presence of IL-6 by Dual-luciferase reporter gene assay
Measured IC50 accompanies every entry in the list below.

O=C(c1ccc(-c2nc(-c3ccc(C(F)(F)F)cc3)no2)nc1)N1CCN(Cc2ccc(NCC(F)(F)F)cc2)CC1 = > 1 µM
CCN1CCN(C(=O)c2ccc(-c3nc(-c4ccc(C(F)(F)F)cc4)no3)nc2)CC1 = > 1 µM
O=C(c1ccc(-c2nc(-c3cccs3)no2)nc1)N1CCN(Cc2ccc(OCC(F)(F)F)cc2)CC1 = > 1 µM
O=C(c1ccc(-c2nc(-c3ccc(C(F)(F)F)cc3)no2)nc1)N1CCN(Cc2ccccc2OCC(F)(F)F)CC1 = > 1 µM
O=C(c1ccc(-c2nc(-c3ccccc3)no2)nc1)N1CCN(Cc2ccc(OCC(F)(F)F)cc2)CC1 = > 1 µM

Request: Value lookup for IC50; key = O=C(c1ccc(-c2nc(-c3cncs3)no2)nc1)N1CCN(Cc2ccc(OCC(F)(F)F)cc2)CC1
Response: > 1 µM

Request: Similarly, Nc1ccc(CN2CCN(C(=O)c3ccc(-c4nc(-c5ccc(C(F)(F)F)cc5)no4)nc3)CC2)cc1 ?
Response: > 1 µM

Request: For O=C(c1ccc(-c2nc(-c3ncccn3)no2)nc1)N1CCN(Cc2ccc(OCC(F)(F)F)cc2)CC1 then?
Response: > 1 µM

Request: Okay, and O=C(c1cccc(-c2nc(-c3ccc(C(F)(F)F)cc3)no2)c1)N1CCN(Cc2ccc(OCC(F)(F)F)cc2)CC1 ?
Response: 0.0521 µM

Request: Same lookup for O=C(c1ccc(-c2nc(-c3ccc(C(F)(F)F)cc3)no2)nc1)N1CCN(Cc2cccc(OC(F)(F)F)c2)CC1 , please.
Response: 0.325 µM

Request: Cc1ccc(-c2noc(-c3ccc(C(=O)N4CCN(Cc5ccc(OCC(F)(F)F)cc5)CC4)cn3)n2)cc1 , same question.
Response: 0.258 µM

Request: Likewise for O=C(c1ccc(-c2nc(-c3ccc(C(F)(F)F)cc3)no2)nc1)N1CCN(Cc2ccc(Cl)cc2)CC1 ?
Response: 0.108 µM

Request: Try O=C(c1ccc(-c2nc(-c3ccc(C(F)(F)F)cc3)no2)nc1)N1CCN(Cc2ccccc2OC(F)(F)F)CC1 next.
Response: > 1 µM

Request: What do you have for CC(C)(C)c1ccc(-c2noc(-c3ccc(C(=O)N4CCN(Cc5ccc(OCC(F)(F)F)cc5)CC4)cn3)n2)cc1 ?
Response: > 1 µM
